This section presents compounds with their documented Inhibition values.
Test system: Escherichia coli
MEASUREMENT_PARAMETERS: Concentration 32 ug.mL-1;; ASSAY_TEST Inhibition of Bacterial Growth; detection method Absorption (OD600); MEDIA CAMHB; plate type 384well; NBS; CORNING #3640; time 18 hr
Description: Antibacterial activity against Escherichia coli ATCC 25922 (CO-ADD:GN_001); MIC in CAMBH media using NBS plates, by OD(600)
Measured potencies and affinities stand elsewhere.
Give the quantity in %, number only.

Some solved entries appear below for comparison.
sample_smiles=CSc1cccc(NC(=O)Cn2nc3c(Oc4cc(C)cc(C)c4)nccn3c2=O)c1 experimental_system="Escherichia coli" observed_value=-5.29
sample_smiles=CCCN(C)c1nccn2c(=O)n(CC(=O)Nc3ccc(C#N)cc3)nc12 experimental_system="Escherichia coli" observed_value=-2.47
sample_smiles=Cc1ccccc1NC(=O)Cn1nc2ccc(SC3CCCCC3)nn2c1=O experimental_system="Escherichia coli" observed_value=-7.39

Which Inhibition reading was recorded for the compound CC(C)c1ccc(N(Cc2cccc(Cl)c2)S(=O)(=O)c2cccn3cnnc23)cc1 ?
-8.14

Queued: C=Cc1ccc(CSc2nnc3c(=O)n(-c4cccc(OC)c4)ccn23)cc1
-3.1

Queued: CCOc1ccc(NC(=O)Cn2nc3c(Sc4ccccc4)nccn3c2=O)cc1
-2.95

Queued: CC(C)CCn1c(=O)c2sccc2n2c(=O)n(Cc3ccccc3Cl)nc12
1.09

This collection of values is drawn from ChEMBL document CHEMBL4513146.
